# assay-summary: AUC (0 to 24 hrs) in monkey at 6 mg/kg, po administered as single dose by LC-MS/MS analysis
# Assay type: ADME, organism-based, Macaca mulatta
# Parameters: dose 6 mg/kg, time < 24 hr, route oral
# experimental-parameters: rhesus monkey, in vivo
measured-attribute: AUC(0-t) at 24 h (µM·h)

- [N-]=[N+]=N[C@]1(CO)O[C@@H](n2ccc(N)nc2=O)[C@@H](F)[C@@H]1O: 7.58

* * *

# assay-summary: Cmax in monkey PBMC assessed as FNC-TP level at 6 mg/kg, po administered as single dose by LC-MS/MS analysis
# Format: ADME, organism-based, Macaca mulatta
# Set-up: dose 6 mg/kg, route oral
# experimental-parameters: rhesus monkey, in vivo
measured-attribute: Cmax (nM)

- [N-]=[N+]=N[C@]1(CO)O[C@@H](n2ccc(N)nc2=O)[C@@H](F)[C@@H]1O: 4.07
